For each of the molecules below, state its AUC(0-inf).
assay: Pharmacokinetic assay in Balb/c mice (plasma and brain tissue); type: in vivo; conditions: male, mouse, po, Plasma, p.o. 5 mg/kg, read-out: Area under curve AUC0-∞
Answers are plain numbers, in ng·h/mL.

Solved cases below.
>>> print(df.to_string())
                                   molecule  number
0  O=C(N[C@H]1C[C@H](CCN2CCN(c3cccc(Cl)c3Cl)CC2)C1)c1nccs1     501
1  O=C(NC1CC(CCN2CCN(c3cccc(Cl)c3Cl)CC2)C1)C1(O)CC1 (centres unmarked)    2460
2  O=C(N[C@H]1C[C@H](CCN2CCN(c3cccc(Cl)c3Cl)CC2)C1)c1ncco1 [Example 12A]    1970
3  O=C(NC1CC(CCN2CCN(c3cccc(Cl)c3Cl)CC2)C1)c1nccs1 (centres unmarked)     541
4  O=C(N[C@H]1C[C@H](CCN2CCN(c3cccc(Cl)c3Cl)CC2)C1)c1cccc2ncccc12 [Example 19A]     471

Each molecule below has a reported value. Please supply its AUC(0-inf).
1. CCN(C)C(=O)NC1CC(CCN2CCN(c3cccc4sccc34)CC2)C1 (centres unmarked)
2. O=C(N[C@H]1C[C@H](CCN2CCN(c3cccc(Cl)c3Cl)CC2)C1)C1(O)CC1
3. O=C(NC1CC(CCN2CCN(c3cccc(Cl)c3Cl)CC2)C1)c1ncco1 (centres unmarked)
4. O=C(N[C@H]1C[C@@H](CCN2CCN(c3cccc(Cl)c3Cl)CC2)C1)c1ncco1 [Example 12B]
5. O=C(N[C@H]1C[C@@H](CCN2CCN(c3cccc(Cl)c3Cl)CC2)C1)C1(O)CC1

[2000, 1440, 1230, 1710, 2320]

Request the reported AUC(0-inf) associated with O=C(NC1CC(CCN2CCCN(c3cccc(Cl)c3Cl)CC2)C1)c1ccco1 (centres unmarked)
297

* * *

target: D3 receptor (Homo sapiens); construct: expressed in transfected cells; test: cAMP content in cells stably expressing D3 receptors (CHO-D3, forskolin, HTRF); type: cell-based
Sequence (P35462 whole entry): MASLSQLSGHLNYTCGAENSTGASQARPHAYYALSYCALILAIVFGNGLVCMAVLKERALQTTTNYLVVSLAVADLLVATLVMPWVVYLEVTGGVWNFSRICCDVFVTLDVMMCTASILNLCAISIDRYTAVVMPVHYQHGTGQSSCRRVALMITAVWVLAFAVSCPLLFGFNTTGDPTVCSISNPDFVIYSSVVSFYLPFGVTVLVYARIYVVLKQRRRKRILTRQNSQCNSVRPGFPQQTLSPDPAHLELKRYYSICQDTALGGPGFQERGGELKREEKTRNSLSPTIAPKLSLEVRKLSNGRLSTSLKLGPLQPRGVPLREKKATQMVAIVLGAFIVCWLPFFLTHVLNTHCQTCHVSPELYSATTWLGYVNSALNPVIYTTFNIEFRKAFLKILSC
OBSERVED PROPERTY: EC50 (nM)
Give bare numbers, in nM.

Solved cases below.
>>> print(df.to_string())
                                   compound              assayed_target  observed_property  readout_units  number
0  N#CC1(C(=O)NC2CC(CCN3CCN(c4cccc(Cl)c4Cl)CC3)C2)CC1 (centres unmarked)  D3 receptor (Homo sapiens)               EC50             nM     3.3
1  O=C(NC1CC(CCN2CCN(c3cccc(Cl)c3Cl)CC2)C1)c1ccon1 (centres unmarked)  D3 receptor (Homo sapiens)               EC50             nM     3.1
2  O=C(NC1CC(CCN2CCN(c3cccc(Cl)c3Cl)CC2)C1)C1(O)CC1 (centres unmarked)  D3 receptor (Homo sapiens)               EC50             nM     2.9
3  Cc1ccc(C(=O)NC2CC(CCN3CCN(c4cccc(Cl)c4Cl)CC3)C2)o1 (centres unmarked)  D3 receptor (Homo sapiens)               EC50             nM     3.5
4  Cc1ncc(C(=O)NC2CC(CCN3CCN(c4cccc(Cl)c4Cl)CC3)C2)o1 (centres unmarked) [Example 16]  D3 receptor (Homo sapiens)               EC50             nM     0.7

Each compound below has a reported value. Please supply its EC50.
1. O=C(NC1CC(CCN2CCN(c3cccc(Cl)c3Cl)CC2)C1)c1ccno1 (centres unmarked)
2. O=C(N[C@H]1C[C@@H](CCN2CCN(c3cccc(Cl)c3Cl)CC2)C1)c1ncco1 [Example 12B]
3. Cc1nc(C(=O)N[C@H]2C[C@H](CCN3CCN(c4cccc(Cl)c4Cl)CC3)C2)co1 [Example 18A]

1: 1.7; 2: 0.7; 3: 1.4
